Biological target: 3',5'-cyclic-AMP phosphodiesterase 4A (Homo sapiens, UniProt P27815)
Sequence (P27815 whole entry): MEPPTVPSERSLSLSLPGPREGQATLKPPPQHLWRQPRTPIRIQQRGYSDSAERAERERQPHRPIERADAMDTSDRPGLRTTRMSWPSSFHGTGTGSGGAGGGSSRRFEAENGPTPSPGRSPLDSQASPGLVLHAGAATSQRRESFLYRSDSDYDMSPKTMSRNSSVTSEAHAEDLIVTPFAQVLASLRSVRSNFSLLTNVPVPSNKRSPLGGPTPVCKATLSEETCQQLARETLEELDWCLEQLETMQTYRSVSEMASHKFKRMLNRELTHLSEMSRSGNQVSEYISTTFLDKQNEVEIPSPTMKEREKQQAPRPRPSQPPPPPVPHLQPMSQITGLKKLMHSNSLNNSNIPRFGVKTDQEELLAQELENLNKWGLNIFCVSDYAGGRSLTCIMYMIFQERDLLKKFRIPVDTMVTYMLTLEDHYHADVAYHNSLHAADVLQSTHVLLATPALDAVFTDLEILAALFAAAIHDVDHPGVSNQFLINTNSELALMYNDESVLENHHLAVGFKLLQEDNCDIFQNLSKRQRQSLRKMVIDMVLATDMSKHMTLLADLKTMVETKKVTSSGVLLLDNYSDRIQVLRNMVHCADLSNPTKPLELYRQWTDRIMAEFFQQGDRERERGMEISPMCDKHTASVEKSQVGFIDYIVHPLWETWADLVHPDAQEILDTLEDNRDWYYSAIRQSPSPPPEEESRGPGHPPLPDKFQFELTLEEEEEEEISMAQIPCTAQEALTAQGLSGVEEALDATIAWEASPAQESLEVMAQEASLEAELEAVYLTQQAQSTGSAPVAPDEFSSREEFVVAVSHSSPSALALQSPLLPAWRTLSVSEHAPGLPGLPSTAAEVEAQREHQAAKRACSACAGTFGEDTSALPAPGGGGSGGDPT
Assay: Inhibition of human recombinant PDE4A assessed reduction in [3H]cAMP hydrolysis preincubated with enzyme for 5 mins prior to substrate addition measured after 20 mins by scintillation proximity assay
pIC50: −log10 of the molar value.
# label = Fulfilled if pIC50 >= 5 else Not fulfilled

- molecule-smiles: "COc1cc2ccccc2nc1COc1ccc(-c2c(-c3ccncc3)cnn2C)cc1"
  assigned-class: "Not fulfilled"
- molecule-smiles: "COc1cc2ccccc2nc1COc1ccc(-c2nn(C)cc2-c2ccncc2)cc1"
  assigned-class: "Fulfilled"
- molecule-smiles: "COc1cc(COc2ccc(-c3nn(C)cc3-c3ccncc3)cc2)nc2ccccc12"
  assigned-class: "Fulfilled"
- molecule-smiles: "COc1cc(COc2ccc(-c3c(-c4ccncc4)cnn3C)cc2)nc2ccccc12"
  assigned-class: "Fulfilled"
- molecule-smiles: "COc1ccc2nc(COc3ccc(-c4c(-c5ccncc5)cnn4C)cc3)ccc2c1"
  assigned-class: "Fulfilled"
- molecule-smiles: "COc1ccc2nc(COc3ccc(-c4nn(C)cc4-c4ccncc4)cc3)ccc2c1"
  assigned-class: "Fulfilled"

Data origin, for the record: ChEMBL document CHEMBL3217426
